Molecular target: Protease (Human immunodeficiency virus 1)
Assay: Inhibition of HIV1 protease at 50 nM
Provide the reported inhibition of each item.
# output: bare number, implied unit %

State the recorded inhibition for this entry: `CC[C@H](C)[C@H](NC(=O)[C@@H](NC(C)=O)C(C)(C)C)C(=O)N[C@@H](Cc1ccccc1)[C@H](O)C(=O)N1CSC(C)(C)[C@@H]1C(=O)N[C@H](C(=O)N[C@@H](CCSC)C(N)=O)[C@@H](C)CC` 98

State the recorded inhibition for this entry: `CC[C@H](C)[C@H](NC(=O)[C@@H]1N(C(=O)[C@@H](O)[C@H](Cc2ccccc2)NC(=O)[C@@H](NC(=O)[C@@H](NC(C)=O)[C@@H](C)CC)[C@@H](C)CC)CSC1(C)C)C(N)=O` 57

State the recorded inhibition for this entry: `CC[C@H](C)[C@H](NC(C)=O)C(=O)N[C@H](C(=O)N[C@@H](Cc1ccccc1)[C@H](O)C(=O)N1CSC(C)(C)[C@@H]1C(=O)N[C@H](C(=O)N[C@@H](CCSC)C(N)=O)C(C)(C)C)[C@@H](C)CC` 79

---

Target: Protease (Human immunodeficiency virus 1) (UniProt Q9YQ12)
Sequence (Q9YQ12 as listed by the source): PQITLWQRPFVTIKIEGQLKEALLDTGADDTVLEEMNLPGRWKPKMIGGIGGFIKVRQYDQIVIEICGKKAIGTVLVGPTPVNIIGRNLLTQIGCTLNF
Experiment: Inhibition of HIV1 protease at 50 nM
*1 amine or outer side, *2 acyl side, *3 side chain or, on linkers, in order; H or OH if unused. Where a SMILES comes first, the peptide text is derived from it. [ ]: non-standard residue; d: D form. X1 = O=C([C@@H](O)[C@H](Cc1ccccc1)N[*:1])[*:2]; Thz(5,5-Me2) = CC1(C)SCN[C@@H]1C(=O)O
Classification field: Met = inhibition at or over 90%; Not met = inhibition under 90%.

Is inhibition at least 90%? Consider CSCC[C@H](NC(=O)[C@@H](NC(=O)[C@H]1N(C(=O)[C@@H](O)[C@H](Cc2ccccc2)NC(=O)[C@@H](NC(=O)[C@H](CCC(N)=O)NC(C)=O)C(C)C)CSC1(C)C)C(C)C)C(N)=O (Ac-QV[X1][Thz(5,5-Me2)]VM-NH2) Met

Is inhibition at least 90%? Consider CSCC[C@H](NC(=O)[C@@H](NC(=O)[C@H]1N(C(=O)[C@@H](O)[C@H](Cc2ccccc2)NC(=O)[C@@H](NC(=O)[C@H](CCC(N)=O)NC(=O)[C@@H]2CCCN2)C(C)C)CSC1(C)C)C(C)C)C(=O)N[C@@H](Cc1c[nH]cn1)C(=O)O (H-PQV[X1][Thz(5,5-Me2)]VMH-OH) Not met

Is inhibition at least 90%? Consider C=CCNC(=O)C1N(C(=O)[C@@H](O)[C@H](Cc2ccccc2)NC(=O)[C@@H](NC(=O)[C@@H](NC(C)=O)c2ccccc2)C(C)(C)C)CSC1(C)C (stereo not given in full) Met

Is inhibition at least 90%? Consider `CC[C@H](C)[C@H](NC(C)=O)C(=O)N[C@H](C(=O)N[C@@H](Cc1ccccc1)[C@H](O)C(=O)N1CSC(C)(C)[C@@H]1C(=O)N[C@H](C(=O)N[C@@H](CCC(N)=O)C(N)=O)[C@@H](C)CC)[C@@H](C)CC` Met

Is inhibition at least 90%? Consider `CC[C@H](C)[C@H](NC(C)=O)C(=O)N[C@H](C(=O)N[C@@H](Cc1ccccc1)[C@H](O)C(=O)N1CSC(C)(C)[C@@H]1C(=O)N[C@H](C(=O)N[C@@H](Cc1ccccc1)C(N)=O)[C@@H](C)CC)[C@@H](C)CC` Met

Is inhibition at least 90%? Consider C=C(C)CNC(=O)C1N(C(=O)[C@@H](O)[C@H](Cc2ccccc2)NC(=O)[C@@H](NC(=O)[C@@H](NC(C)=O)c2ccccc2)C(C)(C)C)CSC1(C)C (stereo not given in full) Met

Is inhibition at least 90%? Consider `CC[C@H](C)[C@H](NC(C)=O)C(=O)N[C@H](C(=O)N[C@H](Cc1ccccc1)[C@H](O)C(=O)N1CSC(C)(C)[C@@H]1C(=O)N[C@H](C(=O)N[C@@H](CCSC)C(N)=O)[C@@H](C)CC)[C@@H](C)CC` Not met

Is inhibition at least 90%? Consider CCCNC(=O)C1N(C(=O)[C@@H](O)[C@H](Cc2ccccc2)NC(=O)[C@@H](NC(=O)[C@@H](NC(C)=O)c2ccccc2)C(C)(C)C)CSC1(C)C (stereo not given in full) Met
